- Test system: Abeta 1-42
- PROCEDURE DETAILS: Cellular αLisa assay in SKNBE2 cells, Abeta 1-42
- Format: cell-based, human
- RUN CONDITIONS: Homo sapiens, SKNBE2, 18 h, incubated for 18 hours, read-out: Cellular αLisa assay in SKNBE2 cells Abeta 42 pIC50 (converted)

{"COMPOUND": "CC1(c2cc(NC(=O)c3ccc(Cl)cn3)ccc2F)N=C(N)COC1C(F)(F)F (racemic) [Compound 107]", "IC50 (nM)": 15.5}
{"COMPOUND": "C[C@]1(c2cc(-c3cncc(C#N)c3)c(F)cc2F)N=C(N)CO[C@H]1C(F)(F)F [Compound 351]", "IC50 (nM)": 550}
{"COMPOUND": "Cc1cc(Br)cnc1C(=O)Nc1ccc(F)c([C@@]2(C3CC3)N=C(N)CO[C@@H]2F)c1 [Compound 314]", "IC50 (nM)": 83.2}
{"COMPOUND": "COc1cncc(-c2cccc(C3(C)N=C(N)COC3C(F)(F)F)c2)c1 (stereo not shown) [Compound 108]", "IC50 (nM)": 120}
